B1: tRNA (parent)
chain: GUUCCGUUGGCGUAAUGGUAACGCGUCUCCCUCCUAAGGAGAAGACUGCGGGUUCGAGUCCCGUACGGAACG

Variants of: B1
Assay: yeast fitness, log relative to wild type (ln ratio); higher = fitter; tRNA-Arg(CCU), competitive growth, 37 C, 1 M NaCl
Label rule, in plain words: yeast fitness (ln) of -0.2 and up is rule met, under -0.2 is rule not met.

- ordered residues: "GUUCCUUUGGCGUAAUGGUAACGCGUUUCCCUCCUAAGGAGACGAUUGCGGGUUCGAGUCCCGUAUGGAGUG"
  category label: "rule not met"
- ordered residues: "AUUCCGUUGGCGUAAUGGUAACGCGUUUCCCUCCUAAGGAGACGAUUGCGGGUUCGAGUCCCGUAUGGGGCG"
  category label: "rule met"
- ordered residues: "ACUCCAUUGGCGUAAUGGUAACGCGUUUCCCUCCUAAGGAGACGAUUGCGGGUUCGAGUCCCGUACGGGUUG"
  category label: "rule not met"
- ordered residues: "GUUCCUUUGGCGUAAUGGUAACGCGUUUCCCUCCUAAGGAGAAGAUUGCGGGUUCGAGUCCCGUAAGGAACG"
  category label: "rule met"
- ordered residues: "GGUCCGUUGGCGUAAUGGUAACGCGUCUCCCUCCUAAGGAGAAGAUUGCGGGUUCGAGUCCCGUAUGGAAUG"
  category label: "rule met"
- ordered residues: "AGUCCGUUGGCGUAAUGGUAACGCGUUUCCCUCCUAAGGAGACGAUUGCGGGUUCGAGUCCCGUACGGGUCG"
  category label: "rule met"
- ordered residues: "GUUCCUUUGGCGUAAUGGUAACGCGUUUCCCUCCUAAGGAGACGAUUGCGGGUUCGAGUCCCGUACGGAGUG"
  category label: "rule not met"
- ordered residues: "GCUCCUUUGGCGUAAUGGUAACGCGUCUCCCUCCUAAGGAGACGACUGCGGGUUCGAGUCCCGUACGGAGUG"
  category label: "rule met"
- ordered residues: "AUUCCUUUGGCGUAAUGGUAACGCGUCUCCCUCCUAAGGAGACGACUGCGGGUUCGAGUCCCGUAUGGGUUG"
  category label: "rule not met"
- ordered residues: "AGUCCAUUGGCGUAAUGGUAACGCGUUUCCCUCCUAAGGAGACGAUUGCGGGUUCGAGUCCCGUACGGGAUG"
  category label: "rule not met"
